Hello, the source for this data is the Immune Epitope Database (IEDB), in case you need it.

- System Under Test: HLA-B*35:01
- Protocol Notes: IEDB peptide-MHC binding, purified MHC/competitive/radioactivity; filed as Kd, often an IC50 or EC50 that approximates it; bounds were set here for any values at or beyond the usual limits of such assays
- Condition Summary: source organism: Dengue virus 1 Brazil/97-11/1997
Endpoint Name: Kd (µM)
Numbers only; they are read as µM.

Exercise: What measured Kd is associated with LALMATFKM on HLA-B*35:01?
Solution: 0.11

Exercise: Give recorded Kd with HLA-B*35:01 for the following sequence: YAQMWQLMYF
Solution: 0.964

###

- System Under Test: HLA-B*15:17
- Protocol Notes: IEDB peptide-MHC binding, purified MHC/direct/fluorescence; filed as Kd, often an IC50 or EC50 that approximates it; bounds were set here for any values at or beyond the usual limits of such assays
- Condition Summary: source organism: Cowpox virus
Endpoint Name: Kd

Exercise: Which measured Kd value corresponds to YHRPLTGYM ?
Solution: ≥ 20 µM
